- Assay: PK/PD duration of effect study, single oral gavage dose: administered compound level in liver
- Format: in vivo, C57BL/6 mice
- Test parameters: C57BL/6, mouse, 2 hr after 500 mg/kg oral gavage, pre-dose BQL, read-out: transcyclohexyl NaR dimer concentration
Reported metric: concentration at 2 h (ng/g)
The figure you give is taken to be in ng/g; do not add the unit.

Query CC(=O)OC[C@H]1O[C@@H]([n+]2cccc(C(=O)O[C@H]3CC[C@H](OC(=O)c4ccc[n+]([C@@H]5O[C@H](COC(C)=O)[C@@H](OC(C)=O)[C@H]5OC(C)=O)c4)CC3)c2)[C@H](OC(C)=O)[C@@H]1OC(C)=O [transcyclohexyl NaR dimer] yields concentration at 2 h of 60

====

- Assay: PK/PD duration of effect study, single oral gavage dose: administered compound level in skeletal muscle
- Format: in vivo, C57BL/6 mice
- Test parameters: C57BL/6, mouse, 0.25 hr after 500 mg/kg oral gavage, pre-dose BQL, read-out: transcyclohexyl NaR dimer concentration
- Procedure: Transcyclohexyl nicotinic acid riboside (NaR) dimer was administered by oral gavage at a dose of 500 mg/kg in an Ethanol/PBS, pH 7.4/PEG400 (10/30/60) vehicle. The dosing volume was 5 ml/kg at a solution concentration of 100 mg/ml. […] Samples were thawed, homogenized, extracted and analyzed by LC-MS on the same day. […] Calibration standards for quantifying administered compound were prepared using transcyclohexyl NaR dimer in mouse liver or skeletal muscle homogenates. […]
Reported metric: concentration at 0.25 h

For CC(=O)OC[C@H]1O[C@@H]([n+]2cccc(C(=O)O[C@H]3CC[C@H](OC(=O)c4ccc[n+]([C@@H]5O[C@H](COC(C)=O)[C@@H](OC(C)=O)[C@H]5OC(C)=O)c4)CC3)c2)[C@H](OC(C)=O)[C@@H]1OC(C)=O [transcyclohexyl NaR dimer] the compound record lists concentration at 0.25 h as 12000 ng/g

====

- Assay: PK/PD duration of effect study, single oral gavage dose: administered compound level in liver
- Assay type: in vivo, C57BL/6 mice
- Test parameters: C57BL/6, mouse, 500 mg/kg oral gavage, regression points 0.75, 1, 2 h, read-out: t½ of transcyclohexyl NaR dimer (converted)
Reported metric: half-life (min)
Express your answer in min, writing the number without its unit.

Noted for CC(=O)OC[C@H]1O[C@@H]([n+]2cccc(C(=O)O[C@H]3CC[C@H](OC(=O)c4ccc[n+]([C@@H]5O[C@H](COC(C)=O)[C@@H](OC(C)=O)[C@H]5OC(C)=O)c4)CC3)c2)[C@H](OC(C)=O)[C@@H]1OC(C)=O [transcyclohexyl NaR dimer] : its half-life reads 30.5

Origin of measurements: patent US11180521B2
